The reported numbers originate from ChEMBL document CHEMBL5523700.

System: MOLP-8
Test: Cytotoxicity against human MOLP8 cells assessed as cell survival at 30 uM incubated for 48 hrs by Cell Titer-Glo luminescent assay relative to control
Assay type: functional
Details: read-out: Survival

{"columns": ["compound", "viability at 30 µM, %"],
 "data": [
  ["O=C1CCC2(CC(C3CCCC3)=NO2)C(=O)N1 (configuration not stated)", 93],
  ["COc1ccc(C2=NOC3(CCC(=O)NC3=O)C2)c(OC)c1OC (configuration not stated)", 66.3],
  ["CCCC1=NOC2(CCC(=O)NC2=O)C1 (configuration not stated)", 100],
  ["O=C1CCC2(CC(c3ccccc3F)=NO2)C(=O)N1 (configuration not stated)", 84.5],
  ["O=C1CCC2(CC(c3ccc(C(=O)O)cc3)=NO2)C(=O)N1 (configuration not stated)", 100],
  ["O=C1CCC2(CC(c3c(Cl)cccc3Cl)=NO2)C(=O)N1 (configuration not stated)", 94.9],
  ["O=C1CCC2(CC(c3ccccc3Cl)=NO2)C(=O)N1 (configuration not stated)", 100],
  ["O=C1CCC2(CC(C3CCCCC3)=NO2)C(=O)N1 (configuration not stated)", 97],
  ["O=C1CCC2(CC(c3ccccc3[N+](=O)[O-])=NO2)C(=O)N1 (configuration not stated)", 75.5],
  ["O=C1CCC(N2C(=O)c3ccccc3C2=O)C(=O)N1 (configuration not stated) [THALIDOMIDE]", 31.6],
  ["O=C1CCC2(CC(c3cccnc3)=NO2)C(=O)N1 (configuration not stated)", 75.5],
  ["O=C1CCC2(CC(c3ccccc3I)=NO2)C(=O)N1 (configuration not stated)", 82.2]
]}
